target: Disintegrin and metalloproteinase domain-containing protein 17 (Homo sapiens, UniProt P78536); assay: Inhibition of human recombinant TACE-mediated amyloid beta hydrolysis after 5 mins by fluorimetry assay
Sequence (P78536 whole entry, the tested form may be a part): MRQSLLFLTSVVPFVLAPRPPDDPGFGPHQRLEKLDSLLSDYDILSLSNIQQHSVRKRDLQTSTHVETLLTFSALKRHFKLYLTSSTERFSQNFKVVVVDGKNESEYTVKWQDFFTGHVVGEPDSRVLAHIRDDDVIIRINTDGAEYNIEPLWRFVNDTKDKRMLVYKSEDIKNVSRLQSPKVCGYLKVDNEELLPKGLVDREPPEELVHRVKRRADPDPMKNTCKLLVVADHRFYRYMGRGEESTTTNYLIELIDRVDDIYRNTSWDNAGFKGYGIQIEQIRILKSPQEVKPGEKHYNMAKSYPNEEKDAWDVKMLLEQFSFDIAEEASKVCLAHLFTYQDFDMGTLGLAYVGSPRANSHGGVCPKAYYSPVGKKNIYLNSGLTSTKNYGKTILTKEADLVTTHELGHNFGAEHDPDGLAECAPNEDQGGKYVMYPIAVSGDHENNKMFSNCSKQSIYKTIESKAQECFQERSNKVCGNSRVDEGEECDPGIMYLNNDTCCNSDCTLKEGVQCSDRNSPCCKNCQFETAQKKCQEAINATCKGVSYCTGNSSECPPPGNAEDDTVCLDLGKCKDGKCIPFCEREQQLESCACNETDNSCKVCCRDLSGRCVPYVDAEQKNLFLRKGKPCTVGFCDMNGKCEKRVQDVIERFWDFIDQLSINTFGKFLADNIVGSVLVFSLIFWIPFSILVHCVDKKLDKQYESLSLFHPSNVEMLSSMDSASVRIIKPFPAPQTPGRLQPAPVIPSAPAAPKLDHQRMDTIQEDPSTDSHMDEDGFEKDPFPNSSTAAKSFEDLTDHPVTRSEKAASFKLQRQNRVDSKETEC
measurementLabel: IC50

Which IC50 value is on record for "CNC(=O)[C@H](Cc1c[nH]cn1)NC(=O)CN(CCCc1ccccc1)CC(=O)O" ?
> 100 µM

* * *

target: Angiotensin-converting enzyme (Homo sapiens, UniProt P12821)
Sequence (P12821 whole entry): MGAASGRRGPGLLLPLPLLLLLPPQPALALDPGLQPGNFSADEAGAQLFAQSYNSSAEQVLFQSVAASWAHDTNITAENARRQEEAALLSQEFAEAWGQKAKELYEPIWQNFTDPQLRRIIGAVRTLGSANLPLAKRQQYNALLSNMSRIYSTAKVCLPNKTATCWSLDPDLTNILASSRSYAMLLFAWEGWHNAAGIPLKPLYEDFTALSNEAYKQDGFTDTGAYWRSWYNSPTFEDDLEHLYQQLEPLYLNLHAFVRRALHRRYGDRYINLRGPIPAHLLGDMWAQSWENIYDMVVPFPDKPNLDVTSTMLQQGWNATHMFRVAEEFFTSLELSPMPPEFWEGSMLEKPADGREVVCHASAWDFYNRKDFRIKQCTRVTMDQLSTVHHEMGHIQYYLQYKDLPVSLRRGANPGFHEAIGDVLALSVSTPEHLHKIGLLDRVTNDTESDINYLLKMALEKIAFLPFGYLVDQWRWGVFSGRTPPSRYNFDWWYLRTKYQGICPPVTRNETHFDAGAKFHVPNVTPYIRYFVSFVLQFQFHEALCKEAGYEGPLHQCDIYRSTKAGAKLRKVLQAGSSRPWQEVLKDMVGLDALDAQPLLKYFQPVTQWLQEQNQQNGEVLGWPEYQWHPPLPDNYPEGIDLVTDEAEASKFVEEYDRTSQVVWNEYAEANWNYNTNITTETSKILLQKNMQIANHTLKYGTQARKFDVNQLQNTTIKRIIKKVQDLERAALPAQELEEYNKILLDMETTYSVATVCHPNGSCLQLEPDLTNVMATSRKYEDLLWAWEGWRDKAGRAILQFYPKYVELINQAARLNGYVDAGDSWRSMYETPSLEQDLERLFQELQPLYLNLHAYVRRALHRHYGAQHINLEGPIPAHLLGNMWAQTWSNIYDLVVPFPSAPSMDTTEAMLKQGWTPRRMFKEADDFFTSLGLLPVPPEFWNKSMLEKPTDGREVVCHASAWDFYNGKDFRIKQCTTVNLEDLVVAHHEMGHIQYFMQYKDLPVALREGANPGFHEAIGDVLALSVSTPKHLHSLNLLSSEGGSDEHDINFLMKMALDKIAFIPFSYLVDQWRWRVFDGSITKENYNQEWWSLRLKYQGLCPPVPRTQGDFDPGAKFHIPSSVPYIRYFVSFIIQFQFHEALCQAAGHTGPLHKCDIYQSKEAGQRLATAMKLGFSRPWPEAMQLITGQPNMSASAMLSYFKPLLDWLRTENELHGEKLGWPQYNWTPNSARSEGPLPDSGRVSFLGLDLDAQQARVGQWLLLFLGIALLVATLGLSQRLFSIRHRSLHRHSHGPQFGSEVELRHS
pIC50: −log10 of the molar value.
measurementLabel: pIC50

Which pIC50 value is on record for "CNC(=O)[C@H](Cc1c[nH]cn1)NC(=O)CN(CCCc1ccccc1)CC(=O)O" ?
< 4.00

* * *

test: Solubility of the compound in PBS at pH 7.4; assay type: physicochemical
measurementLabel: solubility (µM)
Give a bare numeral; the unit µM is implied.

CNC(=O)[C@H](Cc1c[nH]cn1)NC(=O)CN(CCCc1ccccc1)CC(=O)OC    74

Which solubility value is on record for "CNC(=O)[C@H](Cc1c[nH]cn1)NC(=O)CN(CCCc1ccccc1)CC(=O)O" ?
68

* * *

target: UniProtKB Q9BYF1; test: Inhibition of human recombinant ACE2-mediated amyloid beta hydrolysis using Mca-Tyr-Val-Ala-Asp-Pro-Ala-Lys-(DNP)-OH as substrate after 20 mins by fluorimetry assay
Sequence (Q9BYF1 whole entry): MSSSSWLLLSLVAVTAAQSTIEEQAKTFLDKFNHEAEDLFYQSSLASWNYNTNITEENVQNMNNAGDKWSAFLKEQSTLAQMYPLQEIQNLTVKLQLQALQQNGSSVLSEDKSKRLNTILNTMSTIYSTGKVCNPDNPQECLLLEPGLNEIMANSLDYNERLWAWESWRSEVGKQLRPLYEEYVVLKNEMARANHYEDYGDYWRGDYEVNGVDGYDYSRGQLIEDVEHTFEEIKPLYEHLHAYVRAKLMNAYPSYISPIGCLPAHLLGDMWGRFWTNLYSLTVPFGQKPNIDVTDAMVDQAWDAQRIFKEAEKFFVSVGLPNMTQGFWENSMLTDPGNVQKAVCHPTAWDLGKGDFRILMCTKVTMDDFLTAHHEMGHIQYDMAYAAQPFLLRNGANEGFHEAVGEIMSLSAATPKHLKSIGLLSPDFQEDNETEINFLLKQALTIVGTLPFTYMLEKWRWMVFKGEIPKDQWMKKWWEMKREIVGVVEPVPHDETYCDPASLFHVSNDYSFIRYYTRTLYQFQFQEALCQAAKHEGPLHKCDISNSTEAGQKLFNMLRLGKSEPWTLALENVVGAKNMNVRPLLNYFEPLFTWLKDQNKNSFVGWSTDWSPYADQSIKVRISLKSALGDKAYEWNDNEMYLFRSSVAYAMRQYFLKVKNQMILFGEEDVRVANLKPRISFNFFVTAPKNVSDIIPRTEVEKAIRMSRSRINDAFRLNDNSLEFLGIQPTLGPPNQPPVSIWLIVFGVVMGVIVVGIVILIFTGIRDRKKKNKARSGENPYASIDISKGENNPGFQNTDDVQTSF
pIC50: −log10 of the molar value.
measurementLabel: pIC50

Which pIC50 value is on record for "CNC(=O)[C@H](Cc1c[nH]cn1)NC(=O)CN(CCCc1ccccc1)CC(=O)O" ?
< 4.00

* * *

Listed here are compounds together with their documented pIC50.
target: Insulin-degrading enzyme (Homo sapiens, UniProt P14735); assay: Inhibition of human recombinant IDE-mediated amyloid beta (16 to 23) hydrolysis using ATTO 655-Cys-Lys-Leu-Val-Phe-Phe-Ala-Glu-Asp-Trp as substrate preincubated for 10 mins measured after 30 mins by spectrophotometer analysis
Sequence (P14735 whole entry): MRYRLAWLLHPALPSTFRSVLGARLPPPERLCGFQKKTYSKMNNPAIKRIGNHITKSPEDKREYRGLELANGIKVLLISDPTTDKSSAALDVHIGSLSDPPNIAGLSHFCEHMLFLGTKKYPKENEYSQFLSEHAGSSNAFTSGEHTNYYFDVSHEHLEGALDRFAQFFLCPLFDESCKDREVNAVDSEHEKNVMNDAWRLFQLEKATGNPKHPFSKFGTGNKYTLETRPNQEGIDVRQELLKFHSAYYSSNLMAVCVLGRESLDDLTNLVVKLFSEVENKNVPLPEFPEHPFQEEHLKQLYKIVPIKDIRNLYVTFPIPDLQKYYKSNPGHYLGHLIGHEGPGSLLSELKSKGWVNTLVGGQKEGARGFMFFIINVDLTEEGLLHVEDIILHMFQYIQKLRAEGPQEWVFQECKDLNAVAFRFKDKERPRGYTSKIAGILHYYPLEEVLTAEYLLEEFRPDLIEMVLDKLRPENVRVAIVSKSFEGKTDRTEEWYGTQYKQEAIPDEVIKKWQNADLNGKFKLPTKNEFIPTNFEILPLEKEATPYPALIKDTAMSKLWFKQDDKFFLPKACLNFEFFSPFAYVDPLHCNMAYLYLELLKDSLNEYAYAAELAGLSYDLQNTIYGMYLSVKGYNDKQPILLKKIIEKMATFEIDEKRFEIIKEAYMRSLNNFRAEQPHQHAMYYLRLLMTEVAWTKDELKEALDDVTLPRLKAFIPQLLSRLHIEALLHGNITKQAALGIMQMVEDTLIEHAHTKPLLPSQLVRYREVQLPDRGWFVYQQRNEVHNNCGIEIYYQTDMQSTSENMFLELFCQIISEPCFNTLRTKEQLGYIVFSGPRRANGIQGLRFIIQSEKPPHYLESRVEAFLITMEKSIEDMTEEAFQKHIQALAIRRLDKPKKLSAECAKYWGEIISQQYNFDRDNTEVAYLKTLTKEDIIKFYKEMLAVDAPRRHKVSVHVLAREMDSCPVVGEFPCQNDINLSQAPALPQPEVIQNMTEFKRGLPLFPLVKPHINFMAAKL
pIC50: −log10 of the molar value.

# annotated cases, reported pIC50 shown
CNC(=O)[C@H](Cc1c[nH]cn1)NC(=O)CN(CCCc1ccccc1)CC(=O)OC    < 4.00
COC(=O)[C@H](Cc1c[nH]cn1)NC(=O)CN(CC(=O)O)C(=O)c1ccccc1    < 4.00
COC(=O)[C@H](Cc1c[nH]cn1)NC(=O)CN(CCCc1ccccc1)CC(=O)O    6.22

Which pIC50 value is on record for "COC(=O)[C@H](Cc1ccccc1)NC(=O)CN(CC(=O)O)Cc1ccccc1" ?
< 4.00

* * *

target: UniProt:P42892; experiment: Inhibition of human recombinant ECE1-mediated amyloid beta hydrolysis after 45 mins by fluorimetry assay
Sequence (P42892 whole entry): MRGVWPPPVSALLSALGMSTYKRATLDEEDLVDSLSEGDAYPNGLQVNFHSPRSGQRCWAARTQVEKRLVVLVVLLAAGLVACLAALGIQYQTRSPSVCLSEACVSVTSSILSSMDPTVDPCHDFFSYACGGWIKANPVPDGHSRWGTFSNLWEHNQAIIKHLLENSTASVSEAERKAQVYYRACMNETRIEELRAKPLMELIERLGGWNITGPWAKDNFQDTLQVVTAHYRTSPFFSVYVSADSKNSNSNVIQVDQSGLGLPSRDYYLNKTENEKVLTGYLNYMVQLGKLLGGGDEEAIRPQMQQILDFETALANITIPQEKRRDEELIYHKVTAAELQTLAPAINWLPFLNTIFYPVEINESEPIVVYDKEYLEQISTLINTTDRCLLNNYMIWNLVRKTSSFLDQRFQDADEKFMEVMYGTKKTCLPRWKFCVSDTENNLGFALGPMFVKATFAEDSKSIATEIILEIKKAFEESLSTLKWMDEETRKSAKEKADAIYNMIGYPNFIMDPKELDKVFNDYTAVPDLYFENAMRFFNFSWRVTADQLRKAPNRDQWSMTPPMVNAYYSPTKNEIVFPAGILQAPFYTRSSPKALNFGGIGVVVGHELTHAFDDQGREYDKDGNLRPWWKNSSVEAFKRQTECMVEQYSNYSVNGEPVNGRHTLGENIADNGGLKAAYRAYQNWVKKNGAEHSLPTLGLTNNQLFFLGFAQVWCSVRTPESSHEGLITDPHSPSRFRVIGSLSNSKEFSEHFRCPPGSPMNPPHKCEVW
pIC50: −log10 of the molar value.
measurementLabel: pIC50

Which pIC50 value is on record for "CNC(=O)[C@H](Cc1c[nH]cn1)NC(=O)CN(CCCc1ccccc1)CC(=O)O" ?
< 4.00

* * *

experiment: PBS-octanol partition coefficient, log D of the compound; type: physicochemical
Listed here are compounds together with their documented logD.
// response body must contain only the number

CNC(=O)[C@H](Cc1c[nH]cn1)NC(=O)CN(CCCc1ccccc1)CC(=O)OC    1.1

In the following, a different compound is considered.
Which logD value is on record for "CNC(=O)[C@H](Cc1c[nH]cn1)NC(=O)CN(CCCc1ccccc1)CC(=O)O" ?
-1.4

* * *

experiment: Half life in human liver microsomes at 1 uM by LC-MS/MS analysis; format: ADME
measurementLabel: half-life at 1 µM

Which half-life at 1 µM value is on record for "CNC(=O)[C@H](Cc1c[nH]cn1)NC(=O)CN(CCCc1ccccc1)CC(=O)O" ?
> 40 min

* * *

test: Half life in mouse plasma at 10 uM by LC-MS/MS analysis; assay type: ADME, cell-free
measurementLabel: half-life at 10 µM

Which half-life at 10 µM value is on record for "CNC(=O)[C@H](Cc1c[nH]cn1)NC(=O)CN(CCCc1ccccc1)CC(=O)O" ?
> 2880 min

* * *

target: UniProtKB P45452; experiment: Inhibition of human recombinant MMP13-mediated amyloid beta hydrolysis after 10 mins by fluorimetry assay
measurementLabel: IC50

Look up IC50 with UniProtKB P45452 for this molecule: "CNC(=O)[C@H](Cc1c[nH]cn1)NC(=O)CN(CCCc1ccccc1)CC(=O)O"
> 100 µM
